The compounds listed here are annotated with their RP-LC retention time.
test: gradient 5% acetonitrile 3 min, to 50% in 2 min, to 85% in 15 min, held 3 min, 100 µL/min
experimental conditions: column: Zorbax Extend-C18 2.1 x 50 mm; eluents: water / acetonitrile, 0.1% formic acid

- compound: "Cn1nc(CNC(=O)c2ccsc2)c2ccccc21"
  units text: "s"
  RP-LC retention time: 735
- compound: "COc1ccc(NC(=O)N2CCCC2c2nc(-c3cccc(OC)c3)no2)cc1 (centres undefined)"
  units text: "s"
  RP-LC retention time: 875
- compound: "Cc1noc(C2CC3(CCN(C(=O)C4(c5ccccc5)CC4)CC3)CN2C)n1 (centres undefined)"
  units text: "s"
  RP-LC retention time: 631
- compound: "COc1ccc(CCC(=O)NCCCOc2cccc3cccnc23)cc1"
  units text: "s"
  RP-LC retention time: 593
- compound: "CO[C@H]1C(=O)N(C(C)C)[C@H]1C1CCN(C(=O)c2cnn(C)c2)CC1"
  units text: "s"
  RP-LC retention time: 612
- compound: "CCOc1ccc(-n2c(=O)c3sccc3n(Cc3nc(-c4cccc(C)c4)no3)c2=O)cc1"
  units text: "s"
  RP-LC retention time: 1100
- compound: "Cn1cc(CN2CCC(C(=O)NC3CCCCC3)CC2)c2cc(Cl)ccc21"
  units text: "s"
  RP-LC retention time: 702
- compound: "CCOc1cccc(-c2noc(Cn3ccn4nc(-c5cccc(OC)c5)cc4c3=O)n2)c1"
  units text: "s"
  RP-LC retention time: 770
- compound: "Cn1nc(-c2nnc(-c3ccc(F)cc3)o2)c2c1CCN(S(=O)(=O)c1ccc(Cl)cc1)C2"
  units text: "s"
  RP-LC retention time: 1020

Reference source for all entries: the METLIN SMRT retention time set (Domingo-Almenara et al. 2019)
